Sourced from patent US20220363763A1

For each of the binders below, state its pKd.
- test.system: T1, human PD-L1 (construct not stated) (human, UniProt Q9NZQ7 19-239, limits assumed)
- T1 construct: also called B7-H1 (PD-L1); PD-L1 protein
- T1 sequence (Q9NZQ7 19-239 limits assumed): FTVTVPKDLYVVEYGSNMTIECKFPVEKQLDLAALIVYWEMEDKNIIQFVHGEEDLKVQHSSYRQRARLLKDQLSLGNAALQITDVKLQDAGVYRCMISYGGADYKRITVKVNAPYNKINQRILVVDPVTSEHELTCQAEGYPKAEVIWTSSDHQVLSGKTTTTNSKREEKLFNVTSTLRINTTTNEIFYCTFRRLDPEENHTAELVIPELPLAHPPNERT
- method.summary: BLI Octet Red 96, affinity ranking
Please note pKd is a logarithmic value: minus log10 of concentration in mol/L. Answer with that number alone.

Request the reported pKd associated with Hu1210-14 (antibody, V domains shown, Hu1210 VH.3a x Vk.1; human gamma 1 / kappa constant domains) VH: EVQLLESGGGLVQPGGSLRLSCAASGFTFSSYDMSWVRQAPGKSLEWVATISDGGGYIYYSDSVKGRFTISRDNSKNTLYLQMNSLRAEDTAVYICAREFGKRYALDYWGQGTTVTVSS VL: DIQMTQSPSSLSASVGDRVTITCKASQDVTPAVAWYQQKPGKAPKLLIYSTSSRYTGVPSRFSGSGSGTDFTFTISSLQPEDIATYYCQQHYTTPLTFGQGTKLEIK
8.63

Here is the next binder: H1210 chimera (antibody, V domains shown, also called chimeric antibody) VH: EVKLVESGGDLVKPGGSLKLSCAASGFTFSSYDMSWVRQTPEKSLEWVATISDGGGYIYYSDSVKGRFTISRDNAKNNLYLQMSSLRSEDTALYICAREFGKRYALDYWGQGTSVTVSS VL: DIVMTQSHKFMSTSVGDRVSISCKASQDVTPAVAWYQQKPGQSPKLLIYSTSSRYTGVPDRFTGSGSGTDFTFTISSVQAEDLAVYYCQQHYTTPLTFGAGTKLELK
8.97

How about Hu1210-22 (antibody, V domains shown, Hu1210 VH.4b x Vk.1a; human gamma 1 / kappa constant domains) VH: EVQLVESGGGLVQPGGSLRLSCAASGFTFSSYDMSWVRQAPGKSLEWVATISDGGGYIYYSDSVKGRFTISRDNAKNSLYLQMNSLRDEDTAVYICAREFGKRYALDYWGQGTTVTVSS VL: DIQMTQSPSSLSASVGDRVTITCKASQDVTPAVAWYQQKPGKSPKLLIYSTSSRYTGVPSRFSGSGSGTDFTFTISSLQPEDIATYYCQQHYTTPLTFGQGTKLEIK ?
8.59

Further, for Hu1210-3 (antibody, V domains shown, Hu1210 VH.1b x Vk.1; human gamma 1 / kappa constant domains) VH: EVQLVESGGGLVKPGGSLRLSCAASGFTFSSYDMSWVRQAPGKSLEWVATISDGGGYIYYSDSVKGRFTISRDNAKNSLYLQMNSLRAEDTAVYICAREFGKRYALDYWGQGTTVTVSS VL: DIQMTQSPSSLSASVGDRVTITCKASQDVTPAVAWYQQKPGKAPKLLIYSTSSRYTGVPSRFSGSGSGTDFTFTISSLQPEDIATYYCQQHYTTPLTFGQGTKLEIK ?
8.58
